target: E. coli β clamp (Escherichia coli); construct: made in house; host or cells: E. coli BL21 (β); P1 by solid-phase synthesis; assay: SPR competition assay: inhibition of P1-β interaction by challenging peptides; type: binding; settings: IC50 (μM), SPR, inhibition of binding of β ring (0.25 μM) to immobilized P1;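 further: SPR responses corrected for background, then fitted with a 1:1 Langmuir binding model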
Sequence (P0A988 whole entry): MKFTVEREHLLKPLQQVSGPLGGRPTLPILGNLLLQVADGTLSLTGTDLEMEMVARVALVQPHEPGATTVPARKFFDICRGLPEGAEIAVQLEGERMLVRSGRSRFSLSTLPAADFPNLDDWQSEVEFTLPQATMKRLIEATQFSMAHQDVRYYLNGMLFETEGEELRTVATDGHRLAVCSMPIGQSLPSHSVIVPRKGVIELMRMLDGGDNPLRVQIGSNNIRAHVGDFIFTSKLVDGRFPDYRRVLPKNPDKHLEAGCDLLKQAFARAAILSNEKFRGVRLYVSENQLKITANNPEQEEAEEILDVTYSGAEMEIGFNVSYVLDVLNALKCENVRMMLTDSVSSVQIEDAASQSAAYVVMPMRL
MEASURED_ATTRIBUTE: IC50

Give the reported value of IC50 for this record: H-RQLVLGL-OH [Peptide P1, H-Arg-Gln-Leu-Val-Leu-Gly-Leu-OH, reference compound]
8.85 µM

Next:
Give the reported value of IC50 for this record: H-RQLVLL-OH [Peptide P2, H-Arg-Gln-Leu-Val-Leu-Leu-OH]
21.5 µM

Give the reported value of IC50 for this record: H-RQLVLF-OH [Peptide P3, H-Arg-Gln-Leu-Val-Leu-Phe-OH]
8.62 µM

Give the reported value of IC50 for this record: H-RQLVFL-OH [Peptide P4, H-Arg-Gln-Leu-Val-Phe-Leu-OH]
256 µM
